Hello, the source for this data is paper PMC10877733, in case you need it.

experiment_notes: Plasma binding by equilibrium dialysis, rat
Format: in vitro ADME
assay_context: equilibrium dialysis 6 hours 37°C, read-out: Fu, plasma (rat)
readout_name: fraction unbound at 6 h, 5 µM

1) Cc1nc(-c2cccs2)sc1CNC(=O)Nc1cccs1	0.01

====

experiment_notes: Brain:plasma distribution in rat
Format: in vivo
assay_context: male, Sprague Dawley, brain and plasma, IV 0.2 mg/kg, 15 minutes postdose
readout_name: Kp at 0.25 h

1. Cc1nc(-c2cccs2)sc1CNC(=O)Nc1cccs1	0.11

====

tgt: Kir4.2 (Homo sapiens)
Sequence (Q99712 1-375): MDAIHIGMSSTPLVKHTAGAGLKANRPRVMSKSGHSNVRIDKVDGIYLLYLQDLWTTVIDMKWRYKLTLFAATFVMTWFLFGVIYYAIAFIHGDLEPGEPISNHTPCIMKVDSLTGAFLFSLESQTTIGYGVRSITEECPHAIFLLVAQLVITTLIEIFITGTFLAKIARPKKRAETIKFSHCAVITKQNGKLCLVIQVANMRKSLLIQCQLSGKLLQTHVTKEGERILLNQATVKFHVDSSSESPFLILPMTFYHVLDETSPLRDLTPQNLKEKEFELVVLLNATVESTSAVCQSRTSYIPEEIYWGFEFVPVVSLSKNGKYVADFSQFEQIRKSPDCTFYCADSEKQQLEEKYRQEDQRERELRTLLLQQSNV
experiment_notes: Thallium flux selectivity assay Kir4.2
pIC50: −log10 of the molar value.
readout_name: pIC50

1) Cc1nc(-c2cccs2)sc1CNC(=O)Nc1cccs1	< 4.52

====

Each entry below carries its recorded pIC50.
tgt: Kir6.1/SUR2B (Homo sapiens)
Construct: expressed in transfected cells; also transiently transfected HEK293T
Sequence (O60706 1-1549 isoform O60706-2, species assumed): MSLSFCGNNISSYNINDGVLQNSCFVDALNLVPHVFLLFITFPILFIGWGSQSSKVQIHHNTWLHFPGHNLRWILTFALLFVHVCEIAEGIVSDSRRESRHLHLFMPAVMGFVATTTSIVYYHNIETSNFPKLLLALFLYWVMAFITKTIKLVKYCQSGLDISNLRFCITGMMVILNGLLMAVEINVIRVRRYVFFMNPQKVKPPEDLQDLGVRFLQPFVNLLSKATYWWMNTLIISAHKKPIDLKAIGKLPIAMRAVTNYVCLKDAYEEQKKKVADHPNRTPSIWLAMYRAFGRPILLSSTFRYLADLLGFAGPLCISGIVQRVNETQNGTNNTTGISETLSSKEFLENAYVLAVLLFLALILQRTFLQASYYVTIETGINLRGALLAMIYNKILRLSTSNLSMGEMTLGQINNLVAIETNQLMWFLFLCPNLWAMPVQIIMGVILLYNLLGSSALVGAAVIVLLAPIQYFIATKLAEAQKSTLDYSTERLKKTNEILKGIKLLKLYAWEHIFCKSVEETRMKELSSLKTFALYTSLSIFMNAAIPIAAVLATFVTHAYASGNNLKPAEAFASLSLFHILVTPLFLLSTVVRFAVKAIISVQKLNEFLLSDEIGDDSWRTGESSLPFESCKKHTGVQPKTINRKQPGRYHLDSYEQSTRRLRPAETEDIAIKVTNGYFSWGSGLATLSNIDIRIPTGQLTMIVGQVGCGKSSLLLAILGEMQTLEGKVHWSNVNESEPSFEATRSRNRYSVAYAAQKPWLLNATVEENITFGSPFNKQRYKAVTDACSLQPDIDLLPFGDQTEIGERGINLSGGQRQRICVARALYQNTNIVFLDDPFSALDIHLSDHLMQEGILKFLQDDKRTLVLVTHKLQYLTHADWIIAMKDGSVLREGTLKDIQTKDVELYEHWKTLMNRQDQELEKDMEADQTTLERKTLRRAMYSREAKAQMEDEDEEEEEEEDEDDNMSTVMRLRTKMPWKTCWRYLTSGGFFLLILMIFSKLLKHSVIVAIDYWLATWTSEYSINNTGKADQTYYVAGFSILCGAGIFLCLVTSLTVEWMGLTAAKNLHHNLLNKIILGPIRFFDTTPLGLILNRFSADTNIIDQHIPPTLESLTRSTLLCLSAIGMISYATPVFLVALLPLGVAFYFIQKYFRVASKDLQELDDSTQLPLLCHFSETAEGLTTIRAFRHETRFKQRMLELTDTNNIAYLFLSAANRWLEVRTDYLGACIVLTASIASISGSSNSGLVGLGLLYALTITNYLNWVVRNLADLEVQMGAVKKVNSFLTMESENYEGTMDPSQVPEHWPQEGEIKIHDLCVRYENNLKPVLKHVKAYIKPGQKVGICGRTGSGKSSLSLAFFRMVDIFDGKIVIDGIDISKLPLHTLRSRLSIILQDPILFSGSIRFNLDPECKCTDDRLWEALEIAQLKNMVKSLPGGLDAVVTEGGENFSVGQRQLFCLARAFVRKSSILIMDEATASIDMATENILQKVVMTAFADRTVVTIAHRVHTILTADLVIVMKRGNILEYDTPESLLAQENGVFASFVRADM
Sequence (Q15842 whole entry partner, species assumed): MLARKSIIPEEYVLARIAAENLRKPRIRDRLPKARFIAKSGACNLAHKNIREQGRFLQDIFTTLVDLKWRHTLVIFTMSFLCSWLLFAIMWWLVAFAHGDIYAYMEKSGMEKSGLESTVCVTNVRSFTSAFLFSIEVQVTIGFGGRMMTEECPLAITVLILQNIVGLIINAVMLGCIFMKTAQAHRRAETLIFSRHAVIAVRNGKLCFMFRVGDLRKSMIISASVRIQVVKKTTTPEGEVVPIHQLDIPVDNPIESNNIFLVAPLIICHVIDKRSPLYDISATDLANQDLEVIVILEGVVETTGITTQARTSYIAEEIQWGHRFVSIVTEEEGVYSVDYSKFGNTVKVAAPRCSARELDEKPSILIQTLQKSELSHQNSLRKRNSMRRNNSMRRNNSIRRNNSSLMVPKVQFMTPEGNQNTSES
experiment_notes: Thallium flux assay of Kir6.1/SUR2B in HEK293 cells
Type: cell-based
assay_context: transfected HEK-293 cells, pinacidil activation, read-out: Kir6.1/SUR2B IC50 (Fig. 4C)
pIC50: −log10 of the molar value.
readout_name: pIC50

1. Cc1nc(-c2cccs2)sc1CNC(=O)Nc1cccs1	6.89
2. COc1ccc(Cl)cc1C(=O)NCCc1ccc(S(=O)(=O)NC(=O)NC2CCCCC2)cc1 [glibenclamide, reference compound]	6.94

====

experiment_notes: Brain homogenate binding by equilibrium dialysis, mouse
Assay type: in vitro ADME
assay_context: read-out: Fu, brain (mouse)
readout_name: fraction unbound at 6 h, 1 µM

1. Cc1nc(-c2cccs2)sc1CNC(=O)Nc1cccs1	0.02

====

tgt: Kir6.1/SUR2B (Homo sapiens)
Construct: expressed in transfected cells; also transiently transfected HEK293T
experiment_notes: Thallium flux assay of Kir6.1/SUR2B in HEK293 cells
Format: cell-based
assay_context: Table 1 selectivity profile, read-out: IC50 Kir6.1/SUR2B
readout_name: IC50

1) Cc1nc(-c2cccs2)sc1CNC(=O)Nc1cccs1	110 nM

====

experiment_notes: Rat intravenous pharmacokinetics
Format: in vivo
assay_context: male, Sprague Dawley, plasma, 1 mg/kg; rat IV PK
readout_name: half-life

1) Cc1nc(-c2cccs2)sc1CNC(=O)Nc1cccs1	38.4 min

====

tgt: Kir4.1/Kir5.1 (Homo sapiens, UniProt P78508+Q9NPI9)
Sequence (P78508 whole entry): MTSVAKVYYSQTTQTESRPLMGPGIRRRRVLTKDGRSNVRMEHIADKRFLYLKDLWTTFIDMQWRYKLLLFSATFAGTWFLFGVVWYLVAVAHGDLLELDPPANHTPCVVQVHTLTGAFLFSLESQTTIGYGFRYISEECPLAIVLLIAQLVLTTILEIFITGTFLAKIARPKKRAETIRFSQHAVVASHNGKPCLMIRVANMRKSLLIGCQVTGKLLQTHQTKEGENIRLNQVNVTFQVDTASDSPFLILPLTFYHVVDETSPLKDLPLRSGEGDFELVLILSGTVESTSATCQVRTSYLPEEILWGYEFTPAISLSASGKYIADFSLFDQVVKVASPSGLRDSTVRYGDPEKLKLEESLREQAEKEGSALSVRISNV
Sequence (Q9NPI9 whole entry): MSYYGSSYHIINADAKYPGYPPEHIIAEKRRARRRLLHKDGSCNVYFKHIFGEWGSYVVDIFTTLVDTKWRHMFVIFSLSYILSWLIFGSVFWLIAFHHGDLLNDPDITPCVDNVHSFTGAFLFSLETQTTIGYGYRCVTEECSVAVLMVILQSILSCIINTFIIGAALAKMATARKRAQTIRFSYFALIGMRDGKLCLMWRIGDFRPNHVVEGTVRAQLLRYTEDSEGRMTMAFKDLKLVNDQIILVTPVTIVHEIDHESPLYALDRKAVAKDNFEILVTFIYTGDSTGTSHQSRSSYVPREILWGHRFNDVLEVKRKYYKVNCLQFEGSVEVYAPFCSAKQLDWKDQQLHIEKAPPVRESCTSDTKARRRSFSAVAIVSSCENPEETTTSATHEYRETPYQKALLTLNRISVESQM
experiment_notes: Thallium flux selectivity assay Kir4.1/Kir5.1
readout_name: IC50

1. Cc1nc(-c2cccs2)sc1CNC(=O)Nc1cccs1	> 30 µM

====

experiment_notes: Rat intravenous pharmacokinetics
Type: in vivo
assay_context: male, Sprague Dawley, rat, plasma, iv, 1 mg/kg; rat IV PK
readout_name: MRT (min)

1. Cc1nc(-c2cccs2)sc1CNC(=O)Nc1cccs1	10.2
